// data source = paper PMC2890037

Target protein (sequence): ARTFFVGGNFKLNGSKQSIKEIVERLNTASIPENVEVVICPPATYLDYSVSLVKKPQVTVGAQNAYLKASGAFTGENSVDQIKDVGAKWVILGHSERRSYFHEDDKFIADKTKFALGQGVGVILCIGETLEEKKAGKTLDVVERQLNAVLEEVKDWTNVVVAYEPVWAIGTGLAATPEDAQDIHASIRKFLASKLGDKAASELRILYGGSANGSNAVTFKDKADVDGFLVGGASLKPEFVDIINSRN
readout-kind: Ki

>>> recorded_result("O=C(O)COP(=O)(O)O [PGA, 2-phosphoglycolate]")
"19 µM"
